Target or system: Integrase (Human immunodeficiency virus 1, UniProt Q7ZJM1)
Sequence (Q7ZJM1 whole entry): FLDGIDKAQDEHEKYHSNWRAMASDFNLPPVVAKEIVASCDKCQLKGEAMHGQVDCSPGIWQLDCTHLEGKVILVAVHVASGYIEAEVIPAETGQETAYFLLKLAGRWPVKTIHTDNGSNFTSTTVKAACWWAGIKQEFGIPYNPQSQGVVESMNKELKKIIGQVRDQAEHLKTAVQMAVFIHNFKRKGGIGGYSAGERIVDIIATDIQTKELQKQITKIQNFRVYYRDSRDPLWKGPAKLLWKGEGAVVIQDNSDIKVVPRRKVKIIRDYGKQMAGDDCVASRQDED
Protocol summary: Inhibitory activity against 3'-processing of DNA byHIV-1 integrase
Provide the reported pIC50 of each item.
Numbers only, as −log10 of the molar value.

Smiles representation | pIC50
O=c1oc2ccccc2c(O)c1C(c1ccc([N+](=O)[O-])cc1)c1c(O)c2ccccc2oc1=O | 4.30

Now examine the next entry.
### Prompt Can you look up pIC50 on Integrase (Human immunodeficiency virus 1, UniProt Q7ZJM1) for CN(C)c1ccc(C(c2c(O)c3ccccc3oc2=O)c2c(O)c3ccccc3oc2=O)cc1 ?
### Response 4.06

Origin of values: BindingDB's records for doi:10.1021/jm960450v
